System: Tov112D
PROTOCOL_DETAILS: Primary qHTS to identify gynecologic anti-cancer compounds using libraries of approved drugs and bioactive compounds (AID 1345084); also: % is scaled to controls: 0 for no effect and ±100 for the full control effect; nearly all actives have a fitted effect of over 55% in size
CONDITION_NOTES: Gynecologic cancer cell panel viability, ATPlite luminescence, 48 h; series mostly up to 57.5 µM
Inconclusive results are not listed. Calls of active or inactive are those of the source. Calls follow the shape of the dose curve; as a rule, active = well fitted cell-killing curve with a large enough effect; inconclusive = small, poorly fitted or top-dose-only effect, or effect the other way; inactive = flat fitted curve, though single readings scatter.
READOUT_NAME: activity change, negative = cytotoxicity

Query: Dear colleague, I am looking for the recorded activity change, negative = cytotoxicity of the following compound: CC1(C)CC[C@]2(C(=O)O[C@@H]3O[C@H](CO)[C@@H](O)[C@H](O)[C@H]3O)CC[C@]3(C)C(=CCC4[C@@]5(C)CC[C@H](O[C@@H]6O[C@H](C(=O)O)[C@@H](O)[C@H](O[C@@H]7O[C@H](CO)[C@H](O)[C@H](O)[C@H]7O)[C@H]6O)C(C)(C)C5CC[C@]43C)C2C1 (stereo partly drawn)
Response: -2.13% [at 11.6 µM] (inactive)

Query: // next record CC1(C)CC[C@@]2(C(=O)O[C@@H]3O[C@H](CO)[C@@H](O)[C@H](O)[C@H]3O)C(C1)C1=CCC3[C@@]4(C)CC[C@@H](O[C@@H]5O[C@H](C(=O)O)[C@@H](O[C@@H]6OC[C@@H](O)[C@H](O)[C@H]6O)[C@H](O[C@@H]6OC[C@](O)(CO)[C@H]6O)[C@H]5O)C(C)(C)C4CC[C@@]3(C)[C@]1(C)C[C@H]2O (stereo partly drawn)
Response: -29.7% [at 11.6 µM] (inactive)

Query: Now the compound C[C@@H]1O[C@@H](O[C@H]2[C@H](O)[C@@H](O)[C@H](O[C@H]3[C@H](O[C@H]4CC[C@@]5(C)C(=CC[C@@H]6C5CC[C@]5(C)[C@@H]7[C@H](C[C@@H]65)O[C@]5(CC[C@@](C)(CO[C@@H]6O[C@H](CO)[C@@H](O)[C@H](O)[C@H]6O)O5)[C@H]7C)C4)O[C@H](CO)[C@@H](O)[C@@H]3O)O[C@@H]2CO)[C@H](O)[C@H](O)[C@H]1O (stereo partly drawn)
Response: 13% [at 11.6 µM] (inactive)
